B1: TRIM63 (parent)
chain: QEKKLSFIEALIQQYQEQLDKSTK

variants of: B1; assay: protein stability index of a GFP-peptide fusion (GPS, HEK-293T) (PSI 1-6); higher = more stable; conditions: c terminus: a fixed tail appended;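 also: lentivirally expressed fusions sorted by FACS into six bins by GFP to DsRed ratio, PSI derived from sequencing read proportions per bin multiplied by bin number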
Assignment: determine reported protein stability index for the given variants.
Keep the answer to the number alone.

*Q* Entry Q14H has what protein stability index?
*A* 2.03

*Q* And for Q18W ?
*A* 3

*Q* And the next one, D20P ?
*A* 2.46

*Q* Next variant up: K21M
*A* 2.27

*Q* Field entry: L11P
*A* 5.29

*Q* Please give the result for Q18F too.
*A* 1.98

*Q* Same read-out for Q14M ?
*A* 2.44

*Q* Can you handle S22K next?
*A* 2.52

*Q* And for K24L ?
*A* 2.47

*Q* And the next one, L11C ?
*A* 4.29

*Q* Please give the result for L11F too.
*A* 2.79

*Q* # repeat for K21F
*A* 2.54

*Q* Please give the result for Y15P too.
*A* 4.56

*Q* What about S6N ?
*A* 2.59

*Q* Continue with Q18T
*A* 2.93

*Q* # repeat for E17L
*A* 1.8

*Q* Repeat with Q1T
*A* 2.23

*Q* Again, but for S6I
*A* 1.74

*Q* Try S6L next.
*A* 2.2

*Q* Repeat for the following variant: Q14D
*A* 3.17

*Q* Please give the result for I8R too.
*A* 4.08

*Q* Now this one: Q13M
*A* 2.02

*Q* Here is the next variant: L19W
*A* 2.32

*Q* Follow-up item: K21L
*A* 2.17

*Q* Please do the same for T23M as well.
*A* 1.92

*Q* Cool, now K21Q
*A* 3

*Q* Entry T23L please
*A* 1.51

*Q* Input E17F
*A* 2.25

*Q* And for E9K ?
*A* 3.62

*Q* Now give it for L5F too.
*A* 2.91

*Q* Also, Q14G please.
*A* 3.13

*Q* Repeat with K21Y
*A* 2.1

*Q* Same question for I12Y please.
*A* 2.37

*Q* Now consider S22M and answer again.
*A* 2.65

*Q* // query: Q14A
*A* 2.43

*Q* What would you report for Q14Y ?
*A* 1.95

*Q* Repeat for the following variant: K24F
*A* 1.71

*Q* Could you do the same for S22R , please?
*A* 1.98

*Q* Next up: L11D
*A* 5.13

*Q* # repeat for E17S
*A* 2.26

*Q* What about this variant? Q13R
*A* 2.7

*Q* Input L5S
*A* 3.95

*Q* # iterate: E9Y
*A* 1.57

*Q* Next: L19I
*A* 3.19

*Q* Now the variant S22G
*A* 2.26

*Q* Now consider F7Q and answer again.
*A* 4.05

*Q* Okay, and Y15D ?
*A* 4.75

*Q* What do we get for A10N ?
*A* 2.73

*Q* Now consider L5V .
*A* 2.57

*Q* Then E2N ?
*A* 1.9

*Q* Another variant to check: Q18Y
*A* 2.49

*Q* What would you report for S6C ?
*A* 2.74

*Q* Also check K24R
*A* 1.84

*Q* Note, next up: F7R
*A* 3.92

*Q* Would you mind doing K24W as well?
*A* 1.67

*Q* Can you handle Y15G next?
*A* 4.41

*Q* Similarly, Q1F ?
*A* 1.91

*Q* Also check S22C
*A* 2.26

*Q* And Q16A ?
*A* 2.5

*Q* Same for D20F
*A* 1.66

*Q* Please answer likewise for S22E
*A* 3.21

*Q* Please answer likewise for A10F
*A* 2.28

*Q* Also E9N ?
*A* 2.64

*Q* Would you kindly repeat that for E2W ?
*A* 2

*Q* Another variant to check: K24E
*A* 3.51

*Q* Next: I12W
*A* 2.11

*Q* Also T23S , if possible.
*A* 2.7

*Q* How about this variant: A10E
*A* 3.42

*Q* And the next one, S6Y ?
*A* 2.09

*Q* Moving on to the next variant: E9R
*A* 2.82

*Q* Subsequent entry: E17H
*A* 2.11

*Q* Can you handle E17Y next?
*A* 2.84

*Q* What about S22D ?
*A* 3.1

*Q* Try the variant L5D
*A* 3.93

*Q* Consider next the variant Q18V in the same way.
*A* 2.3

*Q* Next record, please: K24Q
*A* 2.68

*Q* Also A10H ?
*A* 2.75

*Q* Queued: K3G
*A* 3.03

*Q* Now try Q13V .
*A* 1.98

*Q* Entry to check: Y15A
*A* 2.61

*Q* Moving on to E2R
*A* 2.93

*Q* Another variant to look at: D20V
*A* 1.2

*Q* Record: Q14T
*A* 3.07
